So I've got a bunch of sequences here, and I need their protein stability index values.
Tested on: Saccharomyces cerevisiae;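 note: PSI is a weighted mean of sequencing reads over stability bins, variants kept only with over 10 reads, mCherry proximal and sfGFP distal, peptide attached via GGGS linker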
Protocol notes: protein stability index of tFT-peptide fusion (C-terminal peptide) (PSI (0-1 scale)); higher = more stable (slower turnover)
Test conditions: genetic background: wild type; temperature: 37 C
Response field accepts a number only; no unit should be typed.

INPUT: Which protein stability index value belongs to `WLSWATRRIVLG` ?
OUTPUT: 0.527

INPUT: Also need `SLCVVIFFSSIT` , thanks.
OUTPUT: 0.413

INPUT: Also need `DLAWAIGRLTKG` , thanks.
OUTPUT: 0.743

INPUT: Also need `WGRGYRWRIWDV` , thanks.
OUTPUT: 0.656
